target: AII receptor; test: Angiotensin II receptor binding (displacement of 3H-AII); settings: read-out: Angiotensin II Receptor Binding IC50; Table 25; rat adrenal cortical microsomes, 2 nM 3H-AII, 1 hour, room temperature
Recorded Metric: IC50 (nM)
Only the number, expressed in nM, is required.

Query :: I would be grateful if you could share the reported IC50 for CCCCc1nc(Cl)c(CO)n1Cc1ccc(NC(=O)c2ccccc2NS(=O)(=O)C(F)(F)F)cc1 [Example 53B] .
Result :: 360

Query :: I would be grateful if you could share the reported IC50 for CCCCc1nc(Cl)c(C(C)C(=O)O)n1Cc1ccc(-c2ccccc2C(=O)O)cc1 (stereo not shown) .
Result :: 260

Query :: I would be grateful if you could share the reported IC50 for COc1ccc(Cc2nccn2Cc2ccc(NC(=O)c3ccccc3C(=O)O)cc2)cc1 .
Result :: 2500

Query :: I would be grateful if you could share the reported IC50 for CCCCc1nc(Cl)c(CO)n1Cc1ccc(-c2ccccc2-c2c[nH]nn2)cc1 .
Result :: 9600

Query :: I would be grateful if you could share the reported IC50 for O=C(O)c1ccccc1-c1ccc(Cn2c(CO)cnc2SCC2CC2)cc1 .
Result :: 1800

Query :: I would be grateful if you could share the reported IC50 for CCCCc1nc(Cl)c(C=O)n1Cc1ccc(-c2ccccc2-c2nnn[nH]2)cc1 .
Result :: 20

Query :: I would be grateful if you could share the reported IC50 for CCCCc1nc(Cl)c(CN2CCN(c3ccccc3OC)CC2)n1Cc1ccc(-c2ccccc2-c2nnn[nH]2)cc1 .
Result :: 350

Query :: I would be grateful if you could share the reported IC50 for CCCCc1nccn1Cc1ccc(NC(=O)c2ccccc2C(=O)O)cc1 .
Result :: 620

Query :: I would be grateful if you could share the reported IC50 for CCCCc1nc(Cl)c(CC(C)C(=O)N[C@H](C)c2ccccc2)n1Cc1ccc(NC(=O)c2ccccc2C(=O)O)cc1 (single isomer, unassigned) [Example 239] .
Result :: 120

Query :: I would be grateful if you could share the reported IC50 for CC(C)c1nccn1Cc1ccc(NC(=O)c2ccccc2NS(=O)(=O)C(F)(F)F)cc1 .
Result :: 8300

Query :: I would be grateful if you could share the reported IC50 for CCCCc1nc(I)c(CO)n1Cc1ccc(-c2ccccc2C(=O)O)cc1 .
Result :: 61

Query :: I would be grateful if you could share the reported IC50 for CCCCc1nc(Cl)c(/C=C/C(C)O)n1Cc1ccc(NC(=O)c2ccccc2C(=O)O)cc1 (stereo not shown) .
Result :: 200

Query :: I would be grateful if you could share the reported IC50 for CCCCc1nc(Cl)c(CC(=O)OC)n1Cc1ccc(NC(=O)c2c(C(=O)O)cccc2[N+](=O)[O-])cc1 .
Result :: 420

Query :: I would be grateful if you could share the reported IC50 for CSc1ncc(CO)n1Cc1ccc(NC(=O)c2ccccc2C(=O)O)cc1 .
Result :: 6500

Query :: I would be grateful if you could share the reported IC50 for CCCCc1nc(Cl)c(C(=O)N(C)C)n1Cc1ccc(-c2ccccc2C(=O)O)cc1 .
Result :: 1300

Query :: I would be grateful if you could share the reported IC50 for CCCCCc1nccn1Cc1ccc(NC(=O)c2ccccc2NS(=O)(=O)C(F)(F)F)cc1 .
Result :: 1200

Reference source: patent US5138069A
